Reference for the values: the OPERA property sets (Mansouri et al. 2018)

Below, each entry is listed alongside its reported melting point.

Report melting point, nothing else, for this compound: "O=C(O)c1cc(Cl)cc(Cl)c1"
188 °C

Report melting point, nothing else, for this compound: "S=C=Nc1cccc2ccccc12"
58 °C

* * *

Metric name: melting point (°C)
Answer format: numeric, °C implied, no suffix.

Some solved entries appear below for comparison.
[
  {
    "Molecule": "CC(CN1C(=O)c2cccnc2Nc2ccccc21)N(C)C (stereo not given)",
    "melting point, °C": 122
  },
  {
    "Molecule": "c1ccc(Cc2ccc(-c3ccccc3)cc2)cc1",
    "melting point, °C": 85
  },
  {
    "Molecule": "Oc1ccccc1F",
    "melting point, °C": 16.1
  },
  {
    "Molecule": "CC(C)(O)C#N",
    "melting point, °C": -19
  },
  {
    "Molecule": "CCN(CC)C(=S)SC(=S)N(CC)CC",
    "melting point, °C": 31
  },
  {
    "Molecule": "CCC(=O)O[C@H]1CC[C@@]2(C)C(=CC[C@H]3[C@@H]4CC[C@H](OC(=O)CC)[C@@]4(C)CC[C@@H]32)C1",
    "melting point, °C": 113
  },
  {
    "Molecule": "CCCOc1ccccc1",
    "melting point, °C": -27
  },
  {
    "Molecule": "FC(F)OC(F)F",
    "melting point, °C": -123
  }
]

Report melting point, nothing else, for this molecule: "O=c1c2ccccc2nc2n1CCc1c-2[nH]c2ccccc12"
260

Report melting point, nothing else, for this molecule: "Cc1ccc(O)c([N+](=O)[O-])c1"
36.5

Report melting point, nothing else, for this molecule: "COc1cc([N+](=O)[O-])c2ncccc2c1"
159

Report melting point, nothing else, for this molecule: "O=C(O)C=CC=Cc1ccc2c(c1)OCO2"
215

Report melting point, nothing else, for this molecule: "CCCOC=O"
-92.9

Report melting point, nothing else, for this molecule: "c1ccc2c(c1)nnc1ccccc12"
158

Report melting point, nothing else, for this molecule: "Cc1[nH]c2ccccc2c1C"
106
